# target-under-test: recombinant MbtI (Mycobacterium tuberculosis, UniProt P9WFX1)
# Sequence (P9WFX1 whole entry): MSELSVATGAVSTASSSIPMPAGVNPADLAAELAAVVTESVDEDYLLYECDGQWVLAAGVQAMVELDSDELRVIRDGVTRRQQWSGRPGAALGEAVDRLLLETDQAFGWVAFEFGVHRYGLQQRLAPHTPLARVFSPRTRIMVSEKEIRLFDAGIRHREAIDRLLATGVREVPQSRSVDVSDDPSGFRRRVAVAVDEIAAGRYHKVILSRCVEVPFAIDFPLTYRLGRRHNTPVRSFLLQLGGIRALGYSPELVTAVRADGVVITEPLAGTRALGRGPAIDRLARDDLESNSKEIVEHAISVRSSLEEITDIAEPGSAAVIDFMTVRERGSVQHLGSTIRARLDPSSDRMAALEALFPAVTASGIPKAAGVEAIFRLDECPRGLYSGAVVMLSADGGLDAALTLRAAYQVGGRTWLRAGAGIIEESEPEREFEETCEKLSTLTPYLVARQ
# method-description: MbtI enzymatic (fluorimetric) inhibition assay
# Type: biochemical
# measurement-conditions: 5 mM MgCl2; Figure 5B, x-axis [10] (μM); read-out: IC50 at 5 mM MgCl2
readout-name: IC50 (µM)
Write it as a number; the unit µM goes unstated.

I have this compound here, N#Cc1cccc(-c2ccc(C(=O)O)o2)c1 , and I need its recorded IC50.
11.4
